# Tested on: RXRa DBDmut IVT, anti-RXR (DBD mutation: RXRa K156A/R161A, NR concentration 90 nM)
# ASSAY_TEXT: PBM binding z-score (relative to random genomic background probes); higher = stronger binding; sequences stand for … in GC…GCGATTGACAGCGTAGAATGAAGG
Documented PBM binding z-score across a set of sequences

[
  {
    "ITEM_SEQUENCE": "ATCTCTAGGTAATACTCAGTTCAGTGAAGAACGC",
    "PBM binding z-score": 0.98
  },
  {
    "ITEM_SEQUENCE": "ACAGCCAGGTGATGAAGGTAACTCAGGCTATCAT",
    "PBM binding z-score": -0.658
  },
  {
    "ITEM_SEQUENCE": "AGTCAAAGCTCACTAGGTAACGTAAGATTCAGCT",
    "PBM binding z-score": -0.217
  },
  {
    "ITEM_SEQUENCE": "TCTTGTAGATCAAAGGTTAAGTAAGCCGAAGCCT",
    "PBM binding z-score": 0.911
  },
  {
    "ITEM_SEQUENCE": "TATACAGGGTCAAAGGCAAGAGTACGAATGTCGA",
    "PBM binding z-score": 3.09
  },
  {
    "ITEM_SEQUENCE": "TCATATAGGTAAATGCTTGGTGAAAGTCCGATCT",
    "PBM binding z-score": 1.52
  },
  {
    "ITEM_SEQUENCE": "GGAACGAGGGCATTCGAGTTGAAAGCATGGCGAT",
    "PBM binding z-score": 3.05
  },
  {
    "ITEM_SEQUENCE": "CGAACTAGGTCAAGGACAGTGAGTCTCCGCACGC",
    "PBM binding z-score": 1.02
  },
  {
    "ITEM_SEQUENCE": "ATATGTAGGTTAAGGGTCGTTCAGGTTGGTTCGC",
    "PBM binding z-score": 1.64
  },
  {
    "ITEM_SEQUENCE": "TTTGCTAGGTCAACGATGGTCAGCTAATCTGCTA",
    "PBM binding z-score": 1.02
  },
  {
    "ITEM_SEQUENCE": "CCTAGTTGCTCAAGGTCACACACGCTATAGGTAC",
    "PBM binding z-score": 2.19
  },
  {
    "ITEM_SEQUENCE": "TCATATAGGTAAACCGGTGAAAGTCCGTAAGTTA",
    "PBM binding z-score": 1.45
  },
  {
    "ITEM_SEQUENCE": "TATACAGGGTCAAAGGCCAGATTACGAATGTCGA",
    "PBM binding z-score": 3.29
  },
  {
    "ITEM_SEQUENCE": "CCTACTGGGCCAAAAAGGTCTTTGATGCCGATAA",
    "PBM binding z-score": -0.428
  },
  {
    "ITEM_SEQUENCE": "TCTGGTTGGTCAAAGGTCACACACTCGAAATGCG",
    "PBM binding z-score": 1.79
  },
  {
    "ITEM_SEQUENCE": "GCATAGAGGTAATACAAGGTGAAAGTCCGATTGT",
    "PBM binding z-score": 0.392
  },
  {
    "ITEM_SEQUENCE": "TAACCTAGGTCATTGGGCCAGTATAGTACGCATC",
    "PBM binding z-score": 2.44
  },
  {
    "ITEM_SEQUENCE": "TCTTGTAGATCAACAGGAGGTTAAGACAGATCGA",
    "PBM binding z-score": 0.507
  },
  {
    "ITEM_SEQUENCE": "CCTAGCTGGCCAGGGTCACTCAAGCATTTCGCTT",
    "PBM binding z-score": 0.326
  },
  {
    "ITEM_SEQUENCE": "TCTTGTATATCAAGCAGGTTAAGAAAGCCTGAGT",
    "PBM binding z-score": 0.788
  },
  {
    "ITEM_SEQUENCE": "CCTGCTAGGTCATGGTCAACTAATCTACAGTATG",
    "PBM binding z-score": 1.75
  },
  {
    "ITEM_SEQUENCE": "TTACCAAGGTGAGCTTAGGTCGTTGATCCAACTC",
    "PBM binding z-score": -0.17
  },
  {
    "ITEM_SEQUENCE": "AGAACGAGGGCAAGGAGTTGATAGCACGGGTGGC",
    "PBM binding z-score": 1.12
  },
  {
    "ITEM_SEQUENCE": "CCAGACAGGTGAGAAGGTAACGCAGCCTCGATTA",
    "PBM binding z-score": 0.201
  },
  {
    "ITEM_SEQUENCE": "TCTGCAAGGTCAGTTGGTCAGCTAACGAGCTGCC",
    "PBM binding z-score": 2.42
  },
  {
    "ITEM_SEQUENCE": "ATAAGTAGGTTATCGGGTCATTCAGTTTGCGCAT",
    "PBM binding z-score": 1.57
  },
  {
    "ITEM_SEQUENCE": "AGAATGAGGTTATACGAAGATCAGGGAAGAAAGT",
    "PBM binding z-score": 1.38
  },
  {
    "ITEM_SEQUENCE": "CCTAGCAGGCCAATCTGGGACACTCAAGGCTTGA",
    "PBM binding z-score": -0.25
  },
  {
    "ITEM_SEQUENCE": "TCTGCGAGGTCAACGATGGTCAGCTAATCTGCTA",
    "PBM binding z-score": 3.91
  },
  {
    "ITEM_SEQUENCE": "ATCTCTAGGTAACCAAGTTCAGTGTATGCCGAAC",
    "PBM binding z-score": 0.982
  },
  {
    "ITEM_SEQUENCE": "TAGAGTAGGTTAGTCGGGGCATTCAGCCAACATA",
    "PBM binding z-score": -0.0578
  },
  {
    "ITEM_SEQUENCE": "CAGCCTAGGTAAGGGCCAGTATAGGAGGAACGTT",
    "PBM binding z-score": -1.12
  },
  {
    "ITEM_SEQUENCE": "GCTTGTAGATCAAGGTTAAGGAAGACTAAGCTAA",
    "PBM binding z-score": -0.171
  },
  {
    "ITEM_SEQUENCE": "CCTATCAGGCCAGGGTCACTCAAGCATTTCGCTT",
    "PBM binding z-score": 0.325
  },
  {
    "ITEM_SEQUENCE": "CGAACTAGGTCATTGACAGGCCAGTGAATAGTAA",
    "PBM binding z-score": 1.99
  },
  {
    "ITEM_SEQUENCE": "ACTAGCAGTCCAAGGGTCACTCAAGATTAGTCCG",
    "PBM binding z-score": 0.612
  },
  {
    "ITEM_SEQUENCE": "GCTGCTAGGTCAACTGATGATCAGCTAAAGCTCG",
    "PBM binding z-score": 1.46
  },
  {
    "ITEM_SEQUENCE": "TAGCCTAGGTCATTGGGCCGGTATAGTACGCATC",
    "PBM binding z-score": 0.933
  },
  {
    "ITEM_SEQUENCE": "AGAATGAGGTTTTTAAGATCAGGGAATTGCGGTC",
    "PBM binding z-score": 0.351
  },
  {
    "ITEM_SEQUENCE": "TTTTGTAGATCAATAGAGGTTAAGAAAGTGCGCT",
    "PBM binding z-score": -0.0202
  },
  {
    "ITEM_SEQUENCE": "AGAACGAGGGCACGCTGAGTGGATAGCAGAGTAG",
    "PBM binding z-score": 1.48
  },
  {
    "ITEM_SEQUENCE": "CCGACTGGGGCAAAGGTTACCATACTCAGTACGA",
    "PBM binding z-score": 0.712
  },
  {
    "ITEM_SEQUENCE": "TCTTGTAGATCCAGCAGGTTAAGAAAGCCTGAGT",
    "PBM binding z-score": 0.513
  },
  {
    "ITEM_SEQUENCE": "ATACCAAGGTGATCGTGAGGTCGTTGATACTAAC",
    "PBM binding z-score": 0.728
  },
  {
    "ITEM_SEQUENCE": "ATCTCTAGGTAACCAAGTTCAGCGAATGCCGAAC",
    "PBM binding z-score": 0.597
  },
  {
    "ITEM_SEQUENCE": "CCTTACGGGTCACTCCAGGTTATAGGATCGGAGT",
    "PBM binding z-score": 1.45
  },
  {
    "ITEM_SEQUENCE": "CCAGACAGCTGAGAAGGTAACTCAGCCTCGATTA",
    "PBM binding z-score": -0.0865
  },
  {
    "ITEM_SEQUENCE": "TCTATTAGTTGAAGGGCAGCCGACGAGTCCGTTT",
    "PBM binding z-score": 1.74
  },
  {
    "ITEM_SEQUENCE": "CCTACTGGACCAAAGGTCATTGATTCCAATGCTC",
    "PBM binding z-score": 1.85
  },
  {
    "ITEM_SEQUENCE": "AGTCAAAGTTCATCTAGGTAACGTACGATATGCT",
    "PBM binding z-score": 4.69
  },
  {
    "ITEM_SEQUENCE": "TTTCCAAGGTGAAGGTCGTTGATCCCTCTGTAGA",
    "PBM binding z-score": 0.389
  }
]
